endpoint: melting point

Worked examples, 5 molecules total:
Cc1sc(NC(=O)CBr)nc1C(=O)O; 218 to 220 °C
Nc1nc(C(=O)O)c(-c2ccccc2)s1; 242 to 243 °C
Nc1nc(C(=O)O)c(-c2cccc(Cl)c2)s1; 242 to 244 °C
COC(=O)c1nc(N)sc1-c1cccc(Cl)c1; 229 to 232 °C
O=C(CBr)Nc1nc(C(=O)O)c(-c2cccc(Cl)c2)s1; 228 to 230 °C

For the next question, use this molecule.
Task: Can you share its melting point? I mean this molecule: O=C(CBr)Nc1nc(C(=O)O)c(Cc2ccccc2)s1
Result: 220 to 222 °C

---

studyTarget: mtFabH (Mycobacterium tuberculosis)
Sequence (P9WNG3 2-335): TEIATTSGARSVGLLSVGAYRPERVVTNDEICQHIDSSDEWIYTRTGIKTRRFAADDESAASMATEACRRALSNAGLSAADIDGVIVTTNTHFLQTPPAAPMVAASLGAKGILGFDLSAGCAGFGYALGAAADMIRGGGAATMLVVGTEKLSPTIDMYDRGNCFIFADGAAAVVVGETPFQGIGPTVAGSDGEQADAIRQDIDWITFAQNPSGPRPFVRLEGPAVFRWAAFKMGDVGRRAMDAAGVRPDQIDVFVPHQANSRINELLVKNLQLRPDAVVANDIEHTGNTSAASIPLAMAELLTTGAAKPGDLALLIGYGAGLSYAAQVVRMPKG
assayProcedure: mtFabH inhibition assay
Assay type: biochemical
particulars: N/A = no inhibition observed at 200 µg/ml; read-out: mtFabH IC50 (class N/A)
Kindly supply the reported IC50 values for the records listed here.

Nc1nc(C(=O)O)c(Cc2ccccc2)s1; > 854 µM
COC(=O)c1nc(NC(=O)CBr)sc1C; > 682 µM
Nc1nc(C(=O)O)c(-c2ccccc2)s1; > 908 µM

Now turn to the next compound.
Task: Would you mind telling me what IC50 value was observed for Cc1sc(N)nc1C(=O)O ?
Result: > 1260 µM

Where do these numbers come from? They come from paper PMC2680598.
